Where do the numbers come from? From patent US20240286998A1.

target: 5-HT2B (Homo sapiens (Human)); assay: 5-HT2B Gq-mediated calcium flux functional assay; assay type: cell-based
Sequence (P41595 whole entry): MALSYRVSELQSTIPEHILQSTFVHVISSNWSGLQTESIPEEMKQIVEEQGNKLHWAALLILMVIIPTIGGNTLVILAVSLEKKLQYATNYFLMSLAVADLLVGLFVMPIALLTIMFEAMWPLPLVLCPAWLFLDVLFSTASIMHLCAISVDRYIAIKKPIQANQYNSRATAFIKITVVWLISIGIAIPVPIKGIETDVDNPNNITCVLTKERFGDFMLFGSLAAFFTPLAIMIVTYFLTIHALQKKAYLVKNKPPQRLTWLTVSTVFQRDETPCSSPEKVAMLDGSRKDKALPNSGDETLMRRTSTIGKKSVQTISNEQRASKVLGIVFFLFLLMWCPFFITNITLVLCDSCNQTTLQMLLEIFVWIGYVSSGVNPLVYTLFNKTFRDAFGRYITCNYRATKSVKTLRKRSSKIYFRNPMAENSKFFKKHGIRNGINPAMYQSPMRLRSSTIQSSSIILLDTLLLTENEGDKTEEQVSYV
Label yes (1) when EC50 is strictly below 6 nM; at or above that, label no (0).

Solved cases below.
CCCN(CC)CCc1c[nH]c2c(F)cc(C)cc12 [compound 166]	no (0)
CCCN(CCc1c[nH]c2ccc(F)cc12)C(C)CC (stereo not shown) [compound 22]	yes (1)
CCN(CCc1c[nH]c2ccc(F)cc12)C(C)C [Example 1]	yes (1)

Given the entry CN1CCC[C@H]1Cc1c[nH]c2ccc(F)cc12 [compound 27] , would its reported EC50 be below 6 nM?
no (0)

Given the entry CCCN(CC)CCc1c[nH]c2ccc(F)cc12 [Example 6] , would its reported EC50 be below 6 nM?
yes (1)
